- assay details: Inhibition of horse erythrocytes trypsin like activity of beta2-20S proteasome using z-ARR-AMC as substrate measured for 60 mins by fluorescence assay
- Parameters: species or system Equus caballus
pIC50: −log10 of the molar value.
Record label 1 whenever pIC50 is at 5 or higher; record label 0 when lower.

molecule="CCCC[Se]1(Cl)c2ccccc2[C@@H](C)[O+]1C (some centres not stated)" class="label 0"
molecule="CCCC[Se]1(Cl)c2ccccc2C[O+]1C.[Cl-] (configuration not stated)" class="label 0"
molecule=CCCC[Te](Cl)(Cl)c1ccccc1[C@@H](C)OC class="label 1"
molecule="CCCC[Se]1(Cl)c2ccccc2[C@H](C)[O+]1C (some centres not stated)" class="label 0"
molecule="CCCC[Se]1(Br)c2ccccc2C[O+]1C.[Br-] (configuration not stated)" class="label 0"
molecule=CCCC[Te](Br)(Br)c1ccccc1[C@H](C)OC class="label 0"
molecule="CCCC[Se]1(Br)c2ccccc2[C@H](C)[O+]1C (some centres not stated)" class="label 0"
molecule=CCCC[Te](Br)(Br)c1ccccc1COC class="label 1"
molecule="CCCC[Se]1(Br)c2ccccc2[C@@H](C)[O+]1C (some centres not stated)" class="label 0"
molecule=CCCC[Te](Cl)(Cl)c1ccccc1[C@H](C)OC class="label 1"
molecule=CCCC[Te](Cl)(Cl)c1ccccc1COC class="label 1"
